Provide the reported Replicon Assay Value TD50 of each item.
# Tested on: HCV replicon cells Huh 9B
# Format: cell-based
# experimental context: concentration reducing total cell area by 50% relative to DMSO controls; 72 h
Quick reminder: number only, in µM, skip the unit.

Query: Which Replicon Assay Value TD50 value is on record for COCCN(C)c1ncc(F)cc1C(=O)N[C@H]1N=C(c2c(Cl)cc(Cl)cc2Cl)c2ccccc2NC1=O ?
Response: 13.07

Query: Same read-out for CCS(=O)(=O)NCCCOc1ccc(Cl)cc1C(=O)NC1N=C(c2c(Cl)cc(Cl)cc2Cl)c2ccccc2NC1=O (stereo not shown) ?
Response: 8.004

Query: Likewise for CCOCCOc1ncc(F)cc1C(=O)N[C@@H]1N=C(c2c(Cl)cc(Cl)cc2Cl)c2ccccc2NC1=O ?
Response: 16.686

====

Provide the reported IC50 of each item.
# System: HCV replicon cells Huh 9B
# experiment notes: HCV replicon assay (luciferase)
# Format: cell-based
# experimental context: Hepatitis C virus, reduction of replicon level by 50% vs untreated cell control, 72 h
Hi! Could you send only the number? It should be in µM, unit omitted.

Query: Can you look up the measured IC50 of COCCOc1ncc(Cl)cc1C(=O)NC1N=C(c2c(Cl)cc(Cl)cc2CN2CCOCC2)c2ccccc2NC1=O (stereo not shown) [Example 51] for me?
Response: 0.281

Query: Do the same for CCC(=O)NCCCOc1ccc(Cl)cc1C(=O)NC1N=C(c2c(Cl)cc(Cl)cc2Cl)c2ccccc2NC1=O (stereo not shown) [Example 26] please
Response: 1.62

Query: // repeat for COCCOc1ncc(Br)cc1C(=O)NC1N=C(c2c(Cl)cc(Cl)cc2Cl)c2ccccc2NC1=O (stereo not shown) [Example 33] and report
Response: 0.487

Query: Could you do the same for CC(=O)NCCCOc1ccc(Cl)cc1C(=O)NC1N=C(c2c(Cl)cc(Cl)cc2Cl)c2ccccc2NC1=O (stereo not shown) [Example 25] , please?
Response: 0.575

Query: What do you get for CCOCCCOc1ncc(F)cc1C(=O)NC1N=C(c2c(Cl)cc(Cl)cc2Cl)c2ccccc2NC1=O (stereo not shown) [Example 39] ?
Response: 0.0663

Query: Try this compound too: COCCOc1ncc(F)cc1C(=O)N[C@@H]1N=C(c2c(Cl)cc(Cl)cc2Cl)c2ccccc2NC1=O [Example 64]
Response: 0.241

Query: And then CCOCCOc1ccc(Cl)cc1C(=O)NC1N=C(c2c(Cl)cc(Cl)cc2Cl)c2ccccc2NC1=O (stereo not shown) [Example 3] , what is it?
Response: 0.0829

====

# System: HCV replicon cells Huh 9B
# experiment notes: HCV replicon assay (luciferase)
# Format: cell-based
# experimental context: Hepatitis C virus, reduction of replicon level by 50% vs untreated cell control, 72 h
pIC50: −log10 of the molar value.
// classify(record): look up pIC50 in ranges Low = under 6, Medium = from 6 up to 7, High = 7 and over

Query: Which bin should I file COCCNc1ncc(F)cc1C(=O)NC1N=C(c2c(Cl)cc(Cl)cc2Cl)c2ccccc2NC1=O (stereo not shown) [Example 42] under?
Response: Low

Query: What would you report for COCCOc1ccc(Cl)cc1C(=O)NC1N=C(c2c(Cl)cccc2Cl)c2ccccc2NC1=O (stereo not shown) [Example 47] ?
Response: Medium

Query: Could you do the same for CCCCOCCOc1ccc(Cl)cc1C(=O)NC1N=C(c2c(Cl)cc(Cl)cc2Cl)c2ccccc2NC1=O (stereo not shown) [Example 10] , please?
Response: Medium

Query: Another compound to look at: COCCOc1ccc(F)cc1C(=O)N[C@@H]1N=C(c2c(Cl)cc(Cl)cc2Cl)c2ccccc2NC1=O [Example 62]
Response: Medium

Query: Query COCCOc1ncc(F)cc1C(=O)N[C@H]1N=C(c2c(Cl)cc(Cl)cc2Cl)c2ccccc2NC1=O [Example 63] next
Response: High

Query: Same thing, different compound: COCCN(C)c1ncc(F)cc1C(=O)N[C@@H]1N=C(c2c(Cl)cc(Cl)cc2Cl)c2ccccc2NC1=O [Example 68]
Response: Medium

Query: What about CCOc1cc(Cl)cc(Cl)c1C1=N[C@H](NC(=O)c2cc(F)ccc2OCCOC)C(=O)Nc2ccccc21 [Example 69] ?
Response: High

Query: And then COCCOc1ccc(F)cc1C(=O)NC1N=C(c2c(Cl)cc(Cl)cc2CN2CCOCC2)c2ccccc2NC1=O (stereo not shown) [Example 50] , what is it?
Response: Medium

Query: Entry to check: CS(=O)(=O)CCOc1ccc(Cl)cc1C(=O)NC1N=C(c2c(Cl)cc(Cl)cc2Cl)c2ccccc2NC1=O (stereo not shown) [Example 29]
Response: Low

Query: Moving on to COCCOCCOc1ncc(F)cc1C(=O)NC1N=C(c2c(Cl)cc(Cl)cc2Cl)c2ccccc2NC1=O (stereo not shown) [Example 37]
Response: Medium

Query: Subsequent entry: COCCOc1ccc(Br)cc1C(=O)NC1N=C(c2c(Cl)cc(Cl)cc2Cl)c2ccccc2NC1=O (stereo not shown) [Example 20]
Response: Medium

Query: Another compound: CCOCCOc1ncc(F)cc1C(=O)NC1N=C(c2c(Cl)cc(Cl)cc2Cl)c2ccccc2NC1=O (stereo not shown) [Example 34]
Response: High

Query: And then COCCOc1ccc(Cl)cc1C(=O)N[C@H]1N=C(c2c(Cl)cc(Cl)cc2Cl)c2ccccc2NC1=O [Example 59] , what is it?
Response: High

Query: Same lookup for CS(=O)(=O)NCCOc1ccc(Cl)cc1C(=O)NC1N=C(c2c(Cl)cc(Cl)cc2Cl)c2ccccc2NC1=O (stereo not shown) [Example 23] , please.
Response: Low

Query: What do you have for CCOCCOc1ncc(F)cc1C(=O)N[C@H]1N=C(c2c(Cl)cc(Cl)cc2Cl)c2ccccc2NC1=O [Example 65] ?
Response: High

Query: Check COCCOc1ccc(OC(F)(F)F)cc1C(=O)NC1N=C(c2c(Cl)cc(Cl)cc2Cl)c2ccccc2NC1=O (stereo not shown) [Example 19] too.
Response: Medium

Query: Another compound to look at: COCCCOc1ncc(F)cc1C(=O)NC1N=C(c2c(Cl)cc(Cl)cc2Cl)c2ccccc2NC1=O (stereo not shown) [Example 38]
Response: High

====

# study system: Recombinant HCV polymerase (BK strain) (Hepatitis C virus genotype 1b)
# Construct: Recombinant HCV polymerase (BK strain) was expressed and purified from E. coli with a 21 amino acid C-terminal deletion; His6
# Sequence (P26663 2420-2989): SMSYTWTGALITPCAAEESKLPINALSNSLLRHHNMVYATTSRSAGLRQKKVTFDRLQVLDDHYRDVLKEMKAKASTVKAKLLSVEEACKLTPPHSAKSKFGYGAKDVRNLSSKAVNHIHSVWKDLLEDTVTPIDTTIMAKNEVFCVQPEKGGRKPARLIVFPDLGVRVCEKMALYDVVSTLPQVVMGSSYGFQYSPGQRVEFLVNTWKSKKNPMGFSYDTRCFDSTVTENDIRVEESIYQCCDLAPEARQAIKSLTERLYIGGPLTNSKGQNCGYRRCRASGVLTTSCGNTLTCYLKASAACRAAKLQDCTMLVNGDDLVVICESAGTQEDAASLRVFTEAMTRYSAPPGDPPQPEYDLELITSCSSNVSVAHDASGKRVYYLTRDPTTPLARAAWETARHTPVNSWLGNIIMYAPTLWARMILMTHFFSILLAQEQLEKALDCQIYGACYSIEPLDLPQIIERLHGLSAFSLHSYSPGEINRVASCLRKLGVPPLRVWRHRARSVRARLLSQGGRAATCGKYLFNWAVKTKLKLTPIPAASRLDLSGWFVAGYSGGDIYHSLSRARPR
# experiment notes: HCV polymerase enzyme assay (radiometric [33P]-UTP incorporation)
experimental endpoint: pIC50
Expect pIC50 as a plain number equal to -log10 of the molar concentration.

Query: What does the record list as pIC50 for COCCOc1ccc(OC(F)(F)F)cc1C(=O)NC1N=C(c2c(Cl)cc(Cl)cc2Cl)c2ccccc2NC1=O (stereo not shown) [Example 19] ?
Response: 5.67

Query: Request: CO[C@@H](C)COc1ncc(F)cc1C(=O)NC1N=C(c2c(Cl)cc(Cl)cc2Cl)c2ccccc2NC1=O (stereo partly shown) [Example 35]
Response: 7.05

Query: Please give the result for COCCOc1ncc(F)cc1C(=O)N[C@H]1N=C(c2c(Cl)cc(Cl)cc2Cl)c2ccccc2NC1=O [Example 63] too.
Response: 7.30

Query: Please answer likewise for CCOc1cc(Cl)cc(Cl)c1C1=NC(NC(=O)c2cc(F)ccc2OCCOC)C(=O)Nc2ccccc21 (stereo not shown) [Example 56]
Response: 6.81

Query: Same read-out for CCNC(=O)NCCOc1ccc(Cl)cc1C(=O)NC1N=C(c2c(Cl)cc(Cl)cc2Cl)c2ccccc2NC1=O (stereo not shown) [Example 24] ?
Response: 6.55

Query: Another: CCOCCOc1ccc(Cl)cc1C(=O)NC1N=C(c2c(Cl)cc(Cl)cc2Cl)c2ccccc2NC1=O (stereo not shown) [Example 3]
Response: 6.95

Query: Try this compound next: CS(=O)(=O)NCCCOc1ccc(Cl)cc1C(=O)NC1N=C(c2c(Cl)cc(Cl)cc2Cl)c2ccccc2NC1=O (stereo not shown) [Example 27]
Response: 6.08

====

# Test system: HCV replicon cells Huh 9B
# Type: cell-based
# experimental context: concentration reducing total cell area by 50% relative to DMSO controls; 72 h
experimental endpoint: Replicon Assay Value TD50

Query: Lookup: Replicon Assay Value TD50 / HCV replicon cells Huh 9B / COCCOc1ncccc1C(=O)NC1N=C(c2c(Cl)cc(Cl)cc2Cl)c2ccccc2NC1=O (stereo not shown)
Response: >25 µM

Query: Follow-up item: CCOCCN(CC)c1ncc(F)cc1C(=O)NC1N=C(c2c(Cl)cc(Cl)cc2Cl)c2ccccc2NC1=O (stereo not shown)
Response: 18.864 µM

Query: Consider next the molecule COCCN(c1ncc(F)cc1C(=O)NC1N=C(c2c(Cl)cc(Cl)cc2Cl)c2ccccc2NC1=O)C(C)C (stereo not shown) in the same way.
Response: 23.394 µM

Query: And for CCOc1cc(Cl)cc(Cl)c1C1=NC(NC(=O)c2cc(F)ccc2OCCOC)C(=O)Nc2ccccc21 (stereo not shown) ?
Response: 11.349 µM

Query: Okay, and COCCOc1ccccc1C(=O)NC1N=C(c2c(Cl)cc(Cl)cc2Cl)c2ccccc2NC1=O (stereo not shown) ?
Response: 25.845 µM

Query: Repeat with CC(=O)NCCCOc1ccc(Cl)cc1C(=O)NC1N=C(c2c(Cl)cc(Cl)cc2Cl)c2ccccc2NC1=O (stereo not shown)
Response: 12.774 µM

Query: Next record, please: COCCOc1ccc(F)cc1C(=O)N[C@@H]1N=C(c2c(Cl)cc(Cl)cc2Cl)c2ccccc2NC1=O
Response: 24.765 µM
